- system_name: STING (Homo sapiens, UniProt Q86WV6)
- Sequence (Q86WV6 whole entry): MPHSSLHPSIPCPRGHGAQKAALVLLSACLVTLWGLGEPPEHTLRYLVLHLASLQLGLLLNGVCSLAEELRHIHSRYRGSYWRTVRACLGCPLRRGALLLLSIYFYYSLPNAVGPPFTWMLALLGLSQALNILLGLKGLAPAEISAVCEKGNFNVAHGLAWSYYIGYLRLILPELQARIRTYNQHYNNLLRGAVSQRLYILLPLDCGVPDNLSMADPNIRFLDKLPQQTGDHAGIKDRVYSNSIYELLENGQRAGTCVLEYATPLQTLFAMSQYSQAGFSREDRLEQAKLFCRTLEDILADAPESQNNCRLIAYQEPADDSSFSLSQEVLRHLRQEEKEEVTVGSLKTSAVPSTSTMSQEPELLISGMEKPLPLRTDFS
- measurement_notes: IFN-β secretion from THP1 by STING activation (hIFNβ ELISA)
- Assay type: cell-based
- study_conditions: THP1 cells; 24 h incubation; IFN-β in supernatant; top dose set according to solubility; read-out: hIFNβ ELISA (EC50)
reported_metric: EC50 (µM)

compound | reported_metric | measurement
CCn1nc(C)cc1C(=O)Nc1nc2cc(C(N)=O)cc(OCCCNC(=O)CN3CCC(OC)CC3)c2n1CCC[C@H]1COc2cc(C(N)=O)cc3nc(NC(=O)c4cc(C)nn4CC)n1c23 [Example 42] | EC50 | 2.2

(A) CCn1nc(C)cc1C(=O)Nc1nc2cc(C(N)=O)cc(OCCCNC(C)=O)c2n1CCC[C@H]1COc2cc(C(N)=O)cc3nc(NC(=O)c4cc(C)nn4CC)n1c23 [Example 22]
(B) CCn1nc(C)cc1C(=O)Nc1nc2cc(C(N)=O)cc(OCCCOC)c2n1CCC[C@H]1COc2cc(C(N)=O)cc3nc(NC(=O)c4cc(C)nn4CC)n1c23 [Example 1]
[ask] I'm curious, which of these has a smaller EC50 number: A or B ? # answer = label of selected item
[reply] B
(B: 2.1 µM, A: 3.9 µM)

(A) CCn1nc(C)cc1C(=O)Nc1nc2cc(C(N)=O)cc(OCCCN(C)C(=O)CN3CCOCC3)c2n1CCC[C@H]1COc2cc(C(N)=O)cc3nc(NC(=O)c4cc(C)nn4CC)n1c23 [Example 29]
(B) CCn1nc(C)cc1C(=O)Nc1nc2cc(C(N)=O)cc(OC)c2n1CCC[C@H]1COc2cc(C(N)=O)cc3nc(NC(=O)c4cc(C)nn4CC)n1c23 [Example 5]
(C) CCn1nc(C)cc1C(=O)Nc1nc2cc(C(N)=O)cc(OCCCCNC)c2n1CCC[C@H]1COc2cc(C(N)=O)cc3nc(NC(=O)c4cc(C)nn4CC)n1c23 [Example 23]
[ask] Ordering: ascending EC50. Please respond by ranking the labels in the order requested.
[reply] C, B, A

(a) CCn1nc(C)cc1C(=O)Nc1nc2cc(C(N)=O)cc(OCCCNC(=O)CN3CC(OC)C3)c2n1CCC[C@H]1COc2cc(C(N)=O)cc3nc(NC(=O)c4cc(C)nn4CC)n1c23 [Example 43]
(b) CCn1nc(C)cc1C(=O)Nc1nc2cc(C(N)=O)cc(OCCCNC(=O)CN3CCOCC3)c2n1CCC[C@H]1COc2cc(C(N)=O)cc3nc(NC(=O)c4c(F)c(C)nn4CC)n1c23 [Example 53]
[ask] Please compare: a and b . Report which one has the smaller EC50 value. Lab note: record the label of whichever item you select.
[reply] b

====

- system_name: STING HAQ variant (Homo sapiens, UniProt Q86WV6, G230A/R293Q/R71H)
- Construct: host or cells: HEK-Blue ISG KO-STING cells (Invivogen, hkb-kostg)
- Sequence (Q86WV6 whole entry R71H/G230A/R293Q): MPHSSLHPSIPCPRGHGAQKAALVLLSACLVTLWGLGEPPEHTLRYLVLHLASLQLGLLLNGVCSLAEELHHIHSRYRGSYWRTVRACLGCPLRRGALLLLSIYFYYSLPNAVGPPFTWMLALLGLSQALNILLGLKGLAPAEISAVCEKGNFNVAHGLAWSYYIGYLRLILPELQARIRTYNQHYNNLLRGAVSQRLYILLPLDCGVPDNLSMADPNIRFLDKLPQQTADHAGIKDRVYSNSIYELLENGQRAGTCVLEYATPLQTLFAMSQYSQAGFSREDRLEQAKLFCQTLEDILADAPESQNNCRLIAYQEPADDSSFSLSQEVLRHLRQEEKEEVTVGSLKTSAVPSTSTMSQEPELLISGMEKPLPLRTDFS
- measurement_notes: SEAP reporter assay in HEK-Blue ISG KO-STING cells transfected with STING HAQ variant (Method 1)
- Format: cell-based
- study_conditions: 1 ng STING vector, compound 5 uM, 24 h, SEAP signal vs 0.5% DMSO
reported_metric: Fold change related to DMSO control HAQ

(a) CCn1nc(C)cc1C(=O)Nc1nc2cc(C(N)=O)cc(OCCCNC(=O)CN(C)C)c2n1CCC[C@H]1COc2cc(C(N)=O)cc3nc(NC(=O)c4cc(C)nn4CC)n1c23
(b) CCn1nc(C)cc1C(=O)Nc1nc2cc(C(N)=O)cc(OCCOC)c2n1CCC[C@H]1COc2cc(C(N)=O)cc3nc(NC(=O)c4cc(C)nn4CC)n1c23
[ask] For this pair, a and b , which shows a numerically higher Fold change related to DMSO control HAQ? Select an item and report its label.
[reply] b

====

- system_name: STING WT variant (Homo sapiens, UniProt Q86WV6)
- Construct: host or cells: HEK-Blue ISG KO-STING cells (Invivogen, hkb-kostg)
- measurement_notes: SEAP reporter assay in HEK-Blue ISG KO-STING cells transfected with STING WT variant (Method 1)
- Type: cell-based
- study_conditions: 1 ng STING vector, compound 2.5 uM, 24 h, SEAP signal vs 0.5% DMSO
reported_metric: Fold change related to DMSO control WT

smiles_notation | Fold change related to DMSO control WT
CCn1nc(C)cc1C(=O)Nc1nc2cc(C(N)=O)cc(OCCNC)c2n1CCC[C@H]1COc2cc(C(N)=O)cc3nc(NC(=O)c4cc(C)nn4CC)n1c23 | 2.07
CCn1nc(C)cc1C(=O)Nc1nc2cc(C(N)=O)cc(OCCCNC(=O)CN3CCNCC3)c2n1CCC[C@H]1COc2cc(C(N)=O)cc3nc(NC(=O)c4cc(C)nn4CC)n1c23 | 1.51
CCn1nc(C)cc1C(=O)Nc1nc2cc(C(N)=O)cc(OCCCNC(=O)CN3CCOCC3)c2n1CCC[C@H]1COc2cc(C(N)=O)cc3nc(NC(=O)c4cc(C)nn4CC)n1c23 | 2.38
CCn1nc(C)cc1C(=O)Nc1nc2cc(C(N)=O)cc(OCCCNC)c2n1CCC[C@H]1COc2cc(C(N)=O)cc3nc(NC(=O)c4cc(C)nn4CC)n1c23.Cl | 2.35
CCn1nc(C)cc1C(=O)Nc1nc2cc(C(N)=O)cc(OCCCNC(=O)C[C@H]3COCCN3)c2n1CCC[C@H]1COc2cc(C(N)=O)cc3nc(NC(=O)c4cc(C)nn4CC)n1c23 | 1.88
CCn1nc(C)c(Br)c1C(=O)Nc1nc2cc(C(N)=O)cc3c2n1[C@@H](CCCn1c(NC(=O)c2cc(C)nn2CCF)nc2cc(C(N)=O)cc(OCCCOC)c21)CO3 | 1.79
CCn1nc(C)cc1C(=O)Nc1nc2cc(C(N)=O)cc(OCCCN)c2n1CCC[C@H]1COc2cc(C(N)=O)cc3nc(NC(=O)c4cc(C)nn4CC)n1c23.Cl | 2.17
CCn1nc(C)cc1C(=O)Nc1nc2cc(C(N)=O)cc(OCCCOC)c2n1CCC[C@H]1COc2cc(C#N)cc3nc(NC(=O)c4cc(C)nn4CC)n1c23 | 1.83
CCn1nc(C)cc1C(=O)Nc1nc2cc(C(N)=O)cc(OCCOC)c2n1CCC[C@H]1COc2cc(C(N)=O)cc3nc(NC(=O)c4cc(C)nn4CC)n1c23 | 2.33
CCn1nc(C)cc1C(=O)Nc1nc2cc(C(N)=O)cc(OCCCCNC)c2n1CCC[C@H]1COc2cc(C(N)=O)cc3nc(NC(=O)c4cc(C)nn4CC)n1c23 | 2.82
CCn1nc(C)cc1C(=O)Nc1nc2cc(C(N)=O)cc(OCCCNC(=O)CN(C)C)c2n1CCC[C@H]1COc2cc(C(N)=O)cc3nc(NC(=O)c4cc(C)nn4CC)n1c23 | 2.63
CCn1nc(C)cc1C(=O)Nc1nc2cc(C(N)=O)cc3c2n1[C@@H](CCCn1c(NC(=O)c2cc(C)nn2CCF)nc2cc(C(N)=O)cc(OCCCOC)c21)CO3 | 1.89
CCn1nc(C)cc1C(=O)Nc1nc2cc(C(N)=O)cc(OCCCNS(C)(=O)=O)c2n1CCC[C@H]1COc2cc(C(N)=O)cc3nc(NC(=O)c4cc(C)nn4CC)n1c23 | 1.96
CCn1nc(C)cc1C(=O)Nc1nc2cc(C(N)=O)cc(OCCCN3CCOCC3)c2n1CCC[C@H]1COc2cc(C(N)=O)cc3nc(NC(=O)c4cc(C)nn4CC)n1c23 | 2.70
CCn1nc(C)cc1C(=O)Nc1nc2cc(C(N)=O)cc(OCCCNC(C)=O)c2n1CCC[C@H]1COc2cc(C(N)=O)cc3nc(NC(=O)c4cc(C)nn4CC)n1c23 | 2.40
COCCCOc1cc(C(N)=O)cc2nc(NC(=O)c3cc(C)nn3CCF)n(CCC[C@H]3COc4cc(C(N)=O)cc5nc(NC(=O)c6cc(C)nn6CCF)n3c45)c12 | 1.98
CCn1nc(C)cc1C(=O)Nc1nc2cc(C(N)=O)cc(OCCOCCOC)c2n1CCC[C@H]1COc2cc(C(N)=O)cc3nc(NC(=O)c4cc(C)nn4CC)n1c23 | 1.95
CCn1nc(C)cc1C(=O)Nc1nc2cc(C(N)=O)cc(OCC[C@@H](O)CO)c2n1CCC[C@H]1COc2cc(C(N)=O)cc3nc(NC(=O)c4cc(C)nn4CC)n1c23 | 2.15
CCn1nc(C)cc1C(=O)Nc1nc2cc(C(N)=O)cc(OCCCN(C)C)c2n1CCC[C@H]1COc2cc(C(N)=O)cc3nc(NC(=O)c4cc(C)nn4CC)n1c23 | 2.64
CCn1nc(C)cc1C(=O)Nc1nc2cc(C(N)=O)cc(OCCCS(C)(=O)=O)c2n1CCC[C@H]1COc2cc(C(N)=O)cc3nc(NC(=O)c4cc(C)nn4CC)n1c23 | 2.14
CCn1nc(C)cc1C(=O)Nc1nc2cc(C(N)=O)cc(OCCCNC(=O)CN(C)C)c2n1CCC[C@H]1COc2cc(C#N)cc3nc(NC(=O)c4cc(C)nn4CC)n1c23 | 2.11
